Readings of Kd for the listed binders
# system: T1, recombinant monomeric human TIGIT-His (human, UniProt Q495A1 22-141)
# T1 construct: also called hTIGIT; not shown: His tag
# T1 sequence: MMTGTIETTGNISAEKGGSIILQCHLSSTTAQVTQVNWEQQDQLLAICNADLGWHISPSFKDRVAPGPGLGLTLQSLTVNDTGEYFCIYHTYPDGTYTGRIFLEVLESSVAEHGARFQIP
# measurement_protocol: BLI (Octet QKe), antibody on AHC sensor, several concentrations of human TIGIT-His, 1:1 global fit, average
Answer in nM, number only, no unit symbol.

For orientation, consider the following solved cases.
binder	test_readout	unit	value
MAB20-IgG4 (antibody, V domains shown) VH: QVQLVQSGAEVKKPGASVKVSCKASGYTFTSHYMGWVRQAPGQGLEWVGIINPSMGATSYAQKFQGRVTMTRDTSTSTVYMELSSLRSEDTAVYYCARLHVSGSYYPAYLDYWGQGTMVTVSS VL: EIVMTQSPATLSVSPGERATLSCRASQSVSSNLAWYQQKPGQAPRHLIYGASTRATGIPARFSGSGSGTEFTLTISSLQSEDFAVYYCQQYIVFPWTFGGGTKVEIKR	Kd	nM	0.46
MAB5-IgG4 (antibody, V domains shown) VH: QLQLQESGPGLVKPSETLSLTCTVSGGSISSTSHYWGWIRQPPGKGLEWIGSIYYSGSTFYNPSLKGRVTISVDTSKNQFSLKLSSVTAADTAVYYCARDANYYGSAWAFDPWGQGTLVTVSS VL: EIVLTQSPATLSLSPGERATLSCRASQSVSSYLAWYQQKPGQAPRLLIYDASNRATGIPARFSGSGSGTDFTLTISSLEPEDFAVYYCQQHFNLPTFGGGTKVEIKR	Kd	nM	0.19
MAB21-IgG4 (antibody, V domains shown) VH: QVQLVQSGAEVKKPGASVKVSCKASGYTFTSHYMGWVRQAPGQGLEWMGIINPSMGATSYTQKFRGRVTMTRDTSTSTVYMELSSLRSEDTAVYYCARLHVSGSYYPAYLDYWGQGTMVTVSS VL: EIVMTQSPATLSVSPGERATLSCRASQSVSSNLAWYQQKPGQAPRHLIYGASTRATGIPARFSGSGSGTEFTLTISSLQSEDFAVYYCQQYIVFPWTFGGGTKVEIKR	Kd	nM	0.36

Lab note: next binder to report on.
// query Read off the recorded Kd for MAB2-IgG4 (antibody, V domains shown) VH: QLQLQESGPGLVKPSETLSLTCTVSGGSISSSKYYWGWIRQPPGKGLEWIGSIYYSGSTFYNPSLKSRVTISVDTSKNQFSLKLSSVTAADTAVYYCARDANYYGSAWAFDPWGQGTLVTVSS VL: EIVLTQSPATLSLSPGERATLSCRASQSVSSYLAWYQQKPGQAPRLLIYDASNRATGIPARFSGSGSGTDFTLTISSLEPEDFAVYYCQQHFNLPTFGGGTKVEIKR
// result 0.71
